Assay: Noncompartmental PK of rutin after intravenous administration of pure rutin or P. peruviana extract
Assay type: in vivo, New Zealand White rabbits
Conditions: male, New Zealand White, rabbit, plasma, iv; rutin; i.v.; pure rutin 0.37 mg/kg, extract equivalent to 1.48 mg/kg of rutin; NCA; mean ± SD, n = 5; read-out: t1/2 (terminal half-life) (converted)
test-readout: half-life (min)

INSERT INTO measurements (molecule, test_readout, readout_value) VALUES
  ('C[C@@H]1O[C@@H](OC[C@H]2O[C@@H](Oc3c(-c4ccc(O)c(O)c4)oc4cc(O)cc(O)c4c3=O)[C@H](O)[C@@H](O)[C@@H]2O)[C@H](O)[C@H](O)[C@H]1O [Pure Rutin, quercetin-3-O-rutinoside]', 'half-life', 47.4);

----------
Test: Noncompartmental PK of rutin after oral administration of pure rutin or P. peruviana extract
Type: in vivo, New Zealand White rabbits
Settings: male, New Zealand White, rabbit, plasma, po; rutin; pure rutin 100 mg/kg, extract equivalent to 7.4 mg/kg of rutin; NCA; mean ± SD, n = 5
test-readout: CL/F (mL/min/kg)

INSERT INTO results (molecule, readout_value) VALUES
  ('C[C@@H]1O[C@@H](OC[C@H]2O[C@@H](Oc3c(-c4ccc(O)c(O)c4)oc4cc(O)cc(O)c4c3=O)[C@H](O)[C@@H](O)[C@@H]2O)[C@H](O)[C@H](O)[C@H]1O [Pure Rutin, quercetin-3-O-rutinoside]', 226);

----------
Assay: Noncompartmental PK of rutin after oral administration of pure rutin or P. peruviana extract
Assay type: in vivo, New Zealand White rabbits
Settings: male, New Zealand White, rabbit, po; rutin in plasma; pure rutin 100 mg/kg, extract equivalent to 7.4 mg/kg of rutin; NCA; mean ± SD, n = 5
test-readout: Cmax

INSERT INTO measurements (molecule, test_readout, readout_value) VALUES
  ('C[C@@H]1O[C@@H](OC[C@H]2O[C@@H](Oc3c(-c4ccc(O)c(O)c4)oc4cc(O)cc(O)c4c3=O)[C@H](O)[C@@H](O)[C@@H]2O)[C@H](O)[C@H](O)[C@H]1O [Pure Rutin, quercetin-3-O-rutinoside]', 'Cmax', '1170 ng/mL');

----------
Experiment: Noncompartmental PK of rutin after intravenous administration of pure rutin or P. peruviana extract
Assay type: in vivo, New Zealand White rabbits
Conditions: male, New Zealand White, rabbit, plasma, iv, 0.37 mg/kg; i.v.; mean ± SEM; at last quantified time; read-out: rutin plasma level, lower end of quantified range
test-readout: concentration at 6 h (ng/mL)

INSERT INTO assay_data (compound, reading_unit, readout_value) VALUES
  ('C[C@@H]1O[C@@H](OC[C@H]2O[C@@H](Oc3c(-c4ccc(O)c(O)c4)oc4cc(O)cc(O)c4c3=O)[C@H](O)[C@@H](O)[C@@H]2O)[C@H](O)[C@H](O)[C@H]1O [Pure Rutin, quercetin-3-O-rutinoside]', 'ng/mL', 105);

----------
Assay: Noncompartmental PK of rutin after intravenous administration of pure rutin or P. peruviana extract
Format: in vivo, New Zealand White rabbits
Conditions: male, New Zealand White, rabbit, plasma, iv, 0.37 mg/kg, rutin; i.v.; pure rutin 0.37 mg/kg, extract equivalent to 1.48 mg/kg of rutin; NCA; mean ± SD, n = 5; read-out: Vz
test-readout: Vd (L/kg)

INSERT INTO measurements (compound, test_readout, readout_value) VALUES
  ('C[C@@H]1O[C@@H](OC[C@H]2O[C@@H](Oc3c(-c4ccc(O)c(O)c4)oc4cc(O)cc(O)c4c3=O)[C@H](O)[C@@H](O)[C@@H]2O)[C@H](O)[C@H](O)[C@H]1O [Pure Rutin, quercetin-3-O-rutinoside]', 'Vd', 0.084);

# credit: paper PMC11510156
